System: CCRF-CEM leukemia
Assay: NCI-60 one-dose screen, 48 h
Details: 10 µM
About 83,000 compounds went through this panel and 20% of them were active in at least one assay; those are over-represented in the sample as a whole. The source made the active and inactive calls. Rule for the calls: active = growth percent below 10; inactive = the rest.
Classes used: yes for active, no for inactive

compound: CCCCCCCCCCCCCC[n+]1ccccc1
assigned_class: yes
//
compound: Clc1cc(Cl)c(Cl)c(-c2nc(-c3cccnc3)cs2)c1
assigned_class: no
//
compound: O=NN(CC(=O)N/N=C/C=C\c1ccccc1)CC(=O)N/N=C/C=C/c1ccccc1
assigned_class: no
//
compound: COc1ccc(-c2nc(-c3ccccc3)c(-c3ccccc3)[nH]2)cc1OC1CCCC1
assigned_class: no
//
compound: CCOC(=O)c1cc2c(n1Cc1cc(OC)cc(OC)c1)-c1oncc1CC2
assigned_class: no
//
compound: O=[N+]([O-])c1cc2ncccc2c2ncccc12
assigned_class: no
//
compound: Cc1ccc(-n2c(-c3cc4c([nH]c5ccccc54)c(-c4cccc(O)c4)n3)n[nH]c2=S)cc1
assigned_class: yes
//
compound: Cc1cc(C)c2nc(C)c(C)[n+]([O-])c2c1
assigned_class: no
//
compound: COC(=O)[C@]12CC[C@@H](C)[C@H](C)[C@@H]1C1=CC[C@@H]3[C@@]4(C)CC(=O)[C@H](O)[C@@](C)(CO)[C@@H]4C(=O)C[C@@]3(C)[C@]1(C)CC2
assigned_class: yes
//
compound: CCOC(=O)/C(C#N)=C(/C)C1CC1
assigned_class: no
//
compound: CCOC(=O)c1cc(-c2ccccc2)nc(N)n1
assigned_class: no
//
compound: O=C(NNc1nc(N2CCCC2)nc(N2CCCC2)n1)c1ccccc1
assigned_class: no
//
compound: COc1ccc(-c2nsc3c2NC(=O)CC3c2ccc(Cl)cc2)cc1 (configuration not stated)
assigned_class: no
//
compound: CNC(=O)c1cc(Oc2ccc(NC(=O)Nc3ccc(Cl)c(C(C)(C)C)c3)c(F)c2)ccn1
assigned_class: no
//
compound: CCOC(=O)c1sc(NC(=O)c2cc(OC)c(OC)c(OC)c2)nc1C
assigned_class: no
//
compound: N#Cc1c(-c2ccccc2)nc(SCC(=O)N2CCOCC2)[nH]c1=O
assigned_class: no
//
compound: Cc1nnc2c3nnc(-c4ccc(Cl)cc4)n3c3ccccc3n12
assigned_class: no
//
compound: Oc1ccccc1-c1nnc(Cn2c(Cc3cccc4ccccc34)nc3ccccc32)o1
assigned_class: no
//
compound: N/C(=N\O)c1cn(C2OC(CO)C(O)C2O)c2ncnc(N)c12 (configuration not stated)
assigned_class: yes
//
compound: Clc1ccc(-c2nc(-c3cccs3)cn3ccnc23)cc1
assigned_class: no
//
compound: O/N=C1\CCC2CCCCC2C1 (configuration not stated)
assigned_class: no
//
compound: Cc1c(C(=O)N[C@H](CO)Cc2ccccc2)[nH]c2ccc(Cl)cc2c1=O
assigned_class: no

---

Tested on: HOP-62 NSCLC
Experiment: NCI-60 one-dose screen, 48 h (100 = growth as untreated, 0 = no growth, -100 = all killed)
Details: 10 µM
This is part of a sample that, as a whole, favours compounds with a hit. Of some 83,000 tested, about 20% had one in any assay.
growth by entry:

molecule: Cc1ccc2nc3[nH]c(=O)[nH]c(=O)c3c(N)c2c1
growth [%]: 84.3
//
molecule: Nc1ncncc1-c1ccc(F)cc1
growth [%]: 105
//
molecule: NC(=O)C12C(=O)NC(=O)C1(C(=O)O)C21CCCC1 (stereo not given)
growth [%]: 110
//
molecule: CCn1nc(-c2ccc(C(=O)OC)cc2)nc2c(=O)n(C)c(=O)nc1-2
growth [%]: -1.34
//
molecule: C[C@H](NC(=O)[C@@H]1CSSC[C@@H](NC(=O)Cc2nc3ccccc3cc2O)C(=O)NCC(=O)N1C)c1ccccc1
growth [%]: 90.2

---

Tested on: MOLT-4 leukemia
Assay: NCI-60 one-dose screen, 48 h
Settings: 10 µM
Protocol: Growth inhibition of the MOLT-4 human tumor cell line is measured as a screen for anti-cancer activity. Cells are grown in 96 well plates and exposed to the test compound for 48 hours. Compounds are tested at a single concentration, which is 10^-5 M for most compounds. The reported endpoint is percent growth (GI% or GIPRCNT), where numbers from 0 - 100% represent growth inhibition, and numbers from -100% - 0 represent cell death. For example, a value of 40 represents 60% growth inhibition. […]
The panel holds about 83,000 compounds, 20% with a hit somewhere; the sample as a whole holds those more often. Calls of active or inactive are those of the source. Rule for the calls: active = growth percent below 10; inactive = the rest.
Classes used: active, inactive

molecule: COc1cc(C2C=C(c3ccc(Cl)cc3)N=C3SC(C)=CN32)cc(OC)c1OC (stereo unspecified)
assigned_class: inactive
//
molecule: COc1ccc(-c2[nH]ncc2-c2cc(OC)c(OC)c(OC)c2)cc1
assigned_class: active
//
molecule: CN(C)c1ccc2c(c1)OC(N)=C(C#N)C2c1ccc2c(c1)CCCN2C (stereo unspecified)
assigned_class: inactive
//
molecule: Nc1cc2c(cc1Cl)-c1ccc(Cl)cc1C2=O
assigned_class: inactive
//
molecule: CC(=O)OCC(COC(C)=O)(COC(C)=O)COC(C)=O
assigned_class: inactive
//
molecule: O=C1/C(=C/c2ccc(O)cc2O)N=C2SCCCN12
assigned_class: inactive
//
molecule: C=CCNC(=S)NN
assigned_class: inactive
//
molecule: Cc1ccc2nc3[nH]c(=O)[nH]c(=O)c3c(N)c2c1
assigned_class: inactive
//
molecule: CCN(CC)CCCOC(=O)Nc1ccccc1Cl
assigned_class: inactive
//
molecule: CCOc1nc(-c2ccccc2)cc2c(O)c(C(=O)N/N=C/c3ccc(OC)cc3)[nH]c(=O)c12
assigned_class: inactive
//
molecule: COc1ccc2nc(/C=C/c3ccc(N(C)C)cc3)sc2c1
assigned_class: inactive
//
molecule: CCCCOCCOCCOCc1cc2c(cc1Br)OCO2
assigned_class: inactive
//
molecule: COc1cccc2c1O/C(=C\c1ccc([N+](=O)[O-])s1)C2=O
assigned_class: inactive
//
molecule: COc1ccc(/C=C2\SC(=S)N(CCCN3CCOCC3)C2=O)c(OC)c1
assigned_class: inactive
//
molecule: O=C(N/N=C/c1ccccc1O)c1ccccc1
assigned_class: inactive
//
molecule: COC(=O)[C@]12CC[C@@H](C)[C@H](C)[C@@H]1C1=CC[C@@H]3[C@@]4(C)CC(=O)[C@H](O)[C@@](C)(CO)[C@@H]4C(=O)C[C@@]3(C)[C@]1(C)CC2
assigned_class: active
//
molecule: CCOc1nc(-c2ccccc2)cc2c(O)c(C(=O)NC(C)C)[nH]c(=O)c12
assigned_class: inactive
//
molecule: O=C(Nc1cccc([N+](=O)[O-])c1)NN1CCCCCC1
assigned_class: inactive
//
molecule: COc1cc(C2CC(=O)Nc3c2c(C)nn3-c2nc3ccccc3[nH]2)cc(OC)c1O (stereo unspecified)
assigned_class: active
//
molecule: N=C(N)c1ccc(-c2ccc(-c3cccs3)s2)nc1
assigned_class: inactive
//
molecule: C[C@H](NC(=O)[C@@H]1CSSC[C@@H](NC(=O)Cc2nc3ccccc3cc2O)C(=O)NCC(=O)N1C)c1ccccc1
assigned_class: active
//
molecule: CCN(CC)CC(O)CNc1ccnc2cc(Cl)c(Cl)cc12 (stereo unspecified)
assigned_class: inactive
//
molecule: N#Cc1ncc(-c2cc(F)ccc2F)c(NC2CCCCCC2)n1
assigned_class: inactive
//
molecule: Cc1ccc(NS(=O)(=O)c2ccccc2)c(NS(=O)(=O)c2ccccc2)c1
assigned_class: inactive
//
molecule: CC1(C)CC(=O)c2c(nc3ccc(Cl)cc3c2-c2ccccc2)C1
assigned_class: inactive
//
molecule: COc1cc(-c2c(C#N)c(N)n3c(nc4ccccc43)c2C#N)cc(Br)c1OC
assigned_class: inactive
//
molecule: COc1ccc2nc(-c3ccccc3)cc(C(C)=O)c2c1
assigned_class: inactive
//
molecule: Cc1ccc(NC(=O)/C=N/O)cc1C
assigned_class: inactive
//
molecule: CC(C)C[C@H](NC(=O)Cn1ccc(Nc2ccccc2)cc1=O)B(O)O
assigned_class: active
//
molecule: CCCCCC(CCC)COC(=O)c1ccc(OC)cc1 (stereo unspecified)
assigned_class: inactive
//
molecule: COc1cc(C2C(C#N)=C(c3c[nH]c4ccccc34)Nc3nc(N)[nH]c(=O)c32)cc(OC)c1OC (stereo unspecified)
assigned_class: inactive

---

Test system: HOP-62 NSCLC
Test: NCI-60 one-dose screen, 48 h (100 = growth as untreated, 0 = no growth, -100 = all killed)
Conditions: 10 µM
The panel holds about 83,000 compounds, 20% with a hit somewhere; the sample as a whole holds those more often.
Classification field: T = growth at or over 80%; F = growth under 80%.

molecule: C=CCN1C(=O)/C(=C\c2ccc3c(c2)CCC3)SC1=S
assigned_class: F
--
molecule: COc1cc(C2C(C#N)=C(c3c[nH]c4ccccc34)Nc3nc(N)[nH]c(=O)c32)cc(OC)c1OC (stereo not drawn)
assigned_class: T
--
molecule: O=C(OCc1ncc(-c2ccc(C(F)(F)F)cc2)c(NC2CCCCCC2)n1)c1c(F)c(F)c(F)c(F)c1F
assigned_class: T
--
molecule: O=C(Nc1ccc(Oc2ccc(Nc3nc4ccccc4s3)cc2)cc1)Nc1ccc(Cl)c(Cl)c1
assigned_class: F
--
molecule: COC(=O)[C@]12CC[C@@H](C)[C@H](C)[C@@H]1C1=CC[C@@H]3[C@@]4(C)CC(=O)[C@H](O)[C@@](C)(CO)[C@@H]4C(=O)C[C@@]3(C)[C@]1(C)CC2
assigned_class: F
--
molecule: S=c1c2ncccc2c(-c2ccccn2)nn1Cc1ccccn1
assigned_class: T
--
molecule: COc1cc(CSc2nc3ccc(Cl)cc3c(=O)n2Cc2ccccc2)cc(OC)c1OC
assigned_class: F
--
molecule: CC1(C)CC(OCCCC[P+](c2ccccc2)(c2ccccc2)c2ccccc2)CC(C)(C)N1O
assigned_class: F
